Data origin, for the record: paper PMC6078440

# TARGET_DESC: T1, LRP6 E1E2-Fc (β-propeller domains 1 and 2 of low-density lipoprotein receptor-related protein 6, Fc fusion) (human)
# T1 chain: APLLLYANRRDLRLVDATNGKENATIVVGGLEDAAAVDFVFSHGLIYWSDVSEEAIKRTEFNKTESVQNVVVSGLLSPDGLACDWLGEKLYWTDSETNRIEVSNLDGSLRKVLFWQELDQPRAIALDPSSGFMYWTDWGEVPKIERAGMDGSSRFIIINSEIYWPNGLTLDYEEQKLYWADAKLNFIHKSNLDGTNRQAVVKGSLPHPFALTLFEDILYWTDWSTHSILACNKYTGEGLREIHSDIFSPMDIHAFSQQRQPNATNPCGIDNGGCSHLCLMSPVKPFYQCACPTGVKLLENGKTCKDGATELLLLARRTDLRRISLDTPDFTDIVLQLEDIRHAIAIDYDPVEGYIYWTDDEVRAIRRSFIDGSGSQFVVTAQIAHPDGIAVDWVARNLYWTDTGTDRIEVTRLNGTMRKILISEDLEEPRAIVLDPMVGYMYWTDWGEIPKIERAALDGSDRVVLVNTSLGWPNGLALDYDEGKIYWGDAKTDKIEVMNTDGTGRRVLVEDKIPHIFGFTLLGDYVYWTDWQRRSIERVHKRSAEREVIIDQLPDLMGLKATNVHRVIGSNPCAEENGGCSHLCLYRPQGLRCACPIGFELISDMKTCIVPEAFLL
# ASSAY_PROCEDURE: BLI; pH 6.5
PROPERTY_MEASURED: Kd (µM)
Numbers only, in µM.

q: Requested field: Kd. Item: N-terminal region of Dkk4 including CRD1, residues 19-97 (domain or fragment) LVLDFNNIRSSADLHGARKGSQCLSDTDCNTRKFCLQPRDEKPFCATCRGLRRRCQRDAMCCPGTLCVNDVCTTMEDAT
a: 11.1
